- ASSAY_NOTES: Volume of distribution in Beagle dog at 27.2 uM/kg, po or 1.4 uM/kg, iv
- Type: ADME, organism-based, Canis lupus familiaris
- APPLIED_CONDITIONS: in vivo
MEASUREMENT_KIND: Vd
Please give the number followed by its unit.

Quick one: Vd of Cc1nc(C)c(-c2ccc(C3CCC(CC(=O)O)CC3)cc2)nc1C(N)=O (stereo unspecified) [AZD-7687] ? 1 L/kg

###

- TEST_SYSTEM: Diacylglycerol O-acyltransferase 2 (Homo sapiens)
- Sequence (Q96PD7 whole entry): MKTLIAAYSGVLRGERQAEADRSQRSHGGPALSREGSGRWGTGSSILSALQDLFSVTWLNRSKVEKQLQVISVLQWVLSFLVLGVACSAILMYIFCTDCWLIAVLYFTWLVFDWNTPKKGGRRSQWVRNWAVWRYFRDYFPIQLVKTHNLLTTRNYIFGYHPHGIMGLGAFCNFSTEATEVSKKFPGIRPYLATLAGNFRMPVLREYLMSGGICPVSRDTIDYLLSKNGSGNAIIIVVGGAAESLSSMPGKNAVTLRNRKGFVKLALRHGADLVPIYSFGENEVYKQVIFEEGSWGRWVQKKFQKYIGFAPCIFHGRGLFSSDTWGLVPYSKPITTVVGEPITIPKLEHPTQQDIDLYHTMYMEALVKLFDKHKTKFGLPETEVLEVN
- ASSAY_NOTES: Inhibition of human DGAT2 by liquid scintillography
MEASUREMENT_KIND: IC50

Quick one: IC50 of Cc1nc(C)c(-c2ccc(C3CCC(CC(=O)O)CC3)cc2)nc1C(N)=O (stereo unspecified) [AZD-7687] ? > 300 µM

###

- ASSAY_NOTES: Intrinsic clearance in rat hepatocytes assessed as parent compound disappearance at 1 uM per 10^6 cells
- Type: ADME, cell-based, Hepatocyte
- APPLIED_CONDITIONS: read-out: CLH
MEASUREMENT_KIND: hepatocyte CLint at 1 µM

Quick one: hepatocyte CLint at 1 µM of Cc1nc(C)c(-c2ccc([C@H]3CC[C@H](CC(N)=O)CC3)cc2)nc1C(N)=O ? 77 µL/min/1e6 cells

###

- TEST_SYSTEM: Diacylglycerol O-acyltransferase 1 (Homo sapiens)
- APPLIED_CONDITIONS: sf9
- Description: Inhibition of human recombinant DGAT1 expressed in Sf9 cells by liquid scintillography
MEASUREMENT_KIND: IC50

// below: answered compounds
Cc1ncc(C(=O)NCc2ccccc2)nc1-c1ccc([C@H]2CC[C@H](CC(=O)O)CC2)cc1    Not Active
Cc1ncc(C(=O)N2CCOCC2)nc1-c1ccc([C@H]2CC[C@H](CC(=O)O)CC2)cc1    Not Active
N#C/N=C(\N)c1cncc(-c2ccc([C@H]3CC[C@H](CC(=O)O)CC3)cc2)n1    Not Active
NCc1cncc(-c2ccc([C@H]3CC[C@H](CC(=O)O)CC3)cc2)n1    Not Active
Cc1ncc(C(=O)N(C)C)nc1-c1ccc([C@H]2CC[C@H](CC(=O)O)CC2)cc1    Not Active
Cc1ncc(C(=O)O)nc1-c1ccc([C@H]2CC[C@H](CC(=O)O)CC2)cc1    Not Active
CNC(=O)c1cnc(C)c(-c2ccc([C@H]3CC[C@H](CC(=O)O)CC3)cc2)n1    Not Active

Field: next compound
Quick one: IC50 of Cc1nc(C)c(-c2ccc([C@H]3CC[C@H](CC(=O)O)CC3)cc2)nc1C(=O)O ? Not Active

###

- ASSAY_NOTES: Clearance in C57BL/6 mouse at 8.16 uM/kg, po or 5.4 uM/kg, iv
- Format: ADME, organism-based
- APPLIED_CONDITIONS: in vivo
MEASUREMENT_KIND: clearance (mL/min/kg)
Supply the numeric figure in mL/min/kg, leaving out any unit text.

Quick one: clearance of Cc1nc(C)c(-c2ccc(C3CCC(CC(=O)O)CC3)cc2)nc1C(N)=O (stereo unspecified) ? 0.77

###

- ASSAY_NOTES: Lipophilicity, log D of the compound at pH 7.4 by chromatographic method
- APPLIED_CONDITIONS: buffer
Parameter chromatographic logD: see the listing below.
Could you keep your reply to the number by itself?

Quick one: chromatographic logD of Cc1ncc(C(=O)N(C)C)nc1-c1ccc([C@H]2CC[C@H](CC(=O)O)CC2)cc1 ? 0.7

Follow-up entry: Cc1nc(C)c(-c2ccc3c(c2)CC[C@]32CC[C@@H](Cc3nnn[nH]3)CC2)nc1C(N)=O 2

Follow-up entry: Cc1nc(C)c(-c2ccc([C@H]3CC[C@H](CC(=O)O)CC3)c(F)c2)nc1C(N)=O 1.3

Follow-up entry: Cc1nc(C)c(-c2ccc([C@H]3CC[C@@H](CC(=O)O)CC3)c(Cl)c2)nc1C(N)=O 1.5

Follow-up entry: Cc1nc(C(F)F)c(C(N)=O)nc1-c1ccc([C@H]2CC[C@H](CC(=O)O)CC2)cc1 1.4

Follow-up entry: CCc1nc(C)c(-c2ccc([C@H]3CC[C@H](CC(=O)O)CC3)cc2)nc1C(N)=O 1.5

Follow-up entry: Cc1nc(C)c(-c2ccc(C34CCC(C(=O)O)(CC3)CC4)cc2)nc1C(N)=O 1.6

###

- TEST_SYSTEM: Diacylglycerol O-acyltransferase 1 (Homo sapiens, UniProt O75907)
- Sequence (O75907 whole entry): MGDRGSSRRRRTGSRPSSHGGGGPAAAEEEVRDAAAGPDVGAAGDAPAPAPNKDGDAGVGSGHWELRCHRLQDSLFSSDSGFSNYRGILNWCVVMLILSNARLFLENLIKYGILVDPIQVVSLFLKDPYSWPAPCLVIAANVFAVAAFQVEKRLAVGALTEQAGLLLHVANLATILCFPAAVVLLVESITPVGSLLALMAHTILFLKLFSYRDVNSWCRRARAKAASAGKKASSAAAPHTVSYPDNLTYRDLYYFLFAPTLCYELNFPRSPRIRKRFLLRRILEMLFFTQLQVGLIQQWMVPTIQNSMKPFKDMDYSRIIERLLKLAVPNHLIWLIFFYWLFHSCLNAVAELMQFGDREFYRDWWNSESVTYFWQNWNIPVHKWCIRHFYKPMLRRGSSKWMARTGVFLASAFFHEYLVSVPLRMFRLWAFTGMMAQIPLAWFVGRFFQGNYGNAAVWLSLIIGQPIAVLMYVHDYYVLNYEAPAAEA
Parameter IC50: see the listing below.

// below: answered molecules
Cc1nc(C(C)C)c(C(N)=O)nc1-c1ccc([C@H]2CC[C@H](CC(=O)O)CC2)cc1    > 10 µM
Cc1nc(C(C)C)c(-c2ccc([C@H]3CC[C@H](CC(=O)O)CC3)cc2)nc1C(N)=O    > 10 µM
CCc1nc(C)c(C(N)=O)nc1-c1ccc([C@H]2CC[C@H](CC(=O)O)CC2)cc1    > 9.1 µM
N=C(N)c1cncc(-c2ccc([C@H]3CC[C@H](CC(=O)O)CC3)cc2)n1    > 33 µM

Quick one: IC50 of NC(=O)c1nc(-c2ccc([C@H]3CC[C@H](CC(=O)O)CC3)cc2)cnc1N ? > 10 µM

Follow-up entry: Cc1nc(-c2ccccc2)c(-c2ccc([C@H]3CC[C@H](CC(=O)O)CC3)cc2)nc1C(N)=O > 10 µM

Follow-up entry: Cc1nc(-c2ccccc2)c(C(N)=O)nc1-c1ccc([C@H]2CC[C@H](CC(=O)O)CC2)cc1 > 10 µM

###

- ASSAY_NOTES: Intrinsic clearance in rat hepatocytes assessed as parent compound disappearance at 1 uM per 10^6 cells
- Type: ADME, cell-based, Hepatocyte
- APPLIED_CONDITIONS: read-out: CLH
MEASUREMENT_KIND: hepatocyte CLint at 1 µM

Cc1nc(C)c(-c2ccc([C@H]3CC[C@H](CC(=O)NS(C)(=O)=O)CC3)cc2)nc1C(N)=O    17 µL/min/1e6 cells
Cc1nc(C)c(-c2ccc3c(c2)CC[C@]32CC[C@@H](CC(=O)O)CC2)nc1C(N)=O    < 2 µL/min/1e6 cells

Quick one: hepatocyte CLint at 1 µM of Cc1ncc(C(N)=O)nc1-c1ccc([C@H]2CC[C@H](C(=O)O)CC2)cc1 ? 72 µL/min/1e6 cells

Follow-up entry: Cc1ncc(C(N)=O)nc1-c1ccc([C@H]2CC[C@H](CC(=O)O)CC2)cc1 < 6 µL/min/1e6 cells

Follow-up entry: NC(=O)c1cncc(-c2ccc([C@H]3CC[C@H](CCO)CC3)cc2)n1 36 µL/min/1e6 cells
